Values from PubChem BioAssay AID686978

Assay: qHTS for Inhibitors of human tyrosyl-DNA phosphodiesterase 1 (TDP1): qHTS in cells in absence of CPT; note: nearly all actives have a fitted effect of over 55% in size
Conditions: DT40 Tdp1-/- hTDP1 cells, no CPT, ATP luminescence, 48 h
In all, about 420,000 compounds went through this assay and about 64,000 (15%) were called active. About 27% were inconclusive and are not listed. Calls come from the whole dose curve; as a rule, active = well fitted inhibition curve with a large enough effect; inconclusive = small, poorly fitted or top-dose-only effect; inactive = flat fitted curve, though single readings scatter. Not all results are given here.
The categories you may choose from are active, inactive

Cc1nc(-c2ccccc2)sc1C(=O)/C=C/c1ccccc1 = active
O=C(NC1CCCC1)C(c1ccc(N2CCOCC2)cc1)N(C(=O)c1ccco1)c1ccccc1F (stereo unspecified) = inactive
COc1cc(NC(=O)Cn2c(=O)n(Cc3ccco3)c(=O)c3oc4ccccc4c32)cc(OC)c1 = inactive
COc1ccc(NC(=O)c2ccco2)cc1NC(=O)c1ccc(C#N)cc1F = inactive
COc1cccc(NC(=O)COC(=O)CCOc2ccccc2OC)c1 = inactive
COC(=O)CSC1=C(C#N)C(c2ccccc2OC)C(C(=O)OC)C(=O)N1 (stereo unspecified) = inactive

In: Returns: the outcome recorded for CC(C)OC(=O)CC(=O)CC(O)c1cccc([N+](=O)[O-])c1 (stereo unspecified) in this assay.
Out: inactive

In: Same question, CC(C)(C)c1ccc(C(CC(=O)O)NS(=O)(=O)Cc2ccccc2)cc1 (stereo unspecified) this time
Out: inactive

In: How about this molecule: `COc1cc(C(=O)Nc2ccc(-n3c(C)nc4ccccc4c3=O)cc2)cc(OC)c1OC`
Out: active

In: `Cc1cccc(N2CCN(C(=O)CCSCc3ccccc3F)CC2)c1C` , same question.
Out: active

In: What about O=C(C1CCCN1S(=O)(=O)c1ccc(Br)cc1)N1CCOCC1 (stereo unspecified) ?
Out: inactive

In: Same question, `Cc1csc(NC(=O)CSc2nnc(-c3cccnc3)o2)n1` this time
Out: inactive

In: Thanks! And `O=C(CCSCc1ccccc1F)N1CCN(c2ccc(Cl)cc2)CC1` ?
Out: active

In: Input `COc1ccc(CC(=O)Nc2nnc3n2CCS3)cc1OC`
Out: inactive

In: What about COc1cccc(NC(=O)C(C)Oc2ccccc2)c1 (stereo unspecified) ?
Out: inactive

In: Further, for C=CCSC1=C(C#N)C(c2cc(Br)c(O)c(OC)c2)CC(=O)N1 (stereo unspecified) ?
Out: inactive

In: Same thing, different molecule: `O=C(OCCN=C1NS(=O)(=O)c2ccccc21)c1cccc([N+](=O)[O-])c1`
Out: inactive

In: Can you handle `COc1cc(CC(=O)Nc2nc(-c3ccc(F)c(F)c3)cs2)cc(OC)c1OC` next?
Out: active

In: // repeat for `Cc1c(Cl)cccc1NC(=S)N(Cc1ccccc1)Cc1cccnc1` and report
Out: inactive

In: Okay, and O=C(O)C1CCCCC1C(=O)Nc1ccc(Cl)cc1 (stereo unspecified) ?
Out: inactive

In: Next molecule up: `Cc1nc2ccccc2c(=O)n1-c1ccc(NS(=O)(=O)c2ccc(F)cc2F)cc1`
Out: inactive

In: Again, but for `CC(=O)c1ccc(S(=O)(=O)Nc2ccc(-c3ccc4nncn4n3)cc2)cc1`
Out: inactive

In: Same question, `O=C(CCS(=O)(=O)c1cccc2nsnc12)N1CCN(c2ccccc2F)CC1` this time
Out: inactive

In: Try the molecule `Cc1ccnc(N)c1`
Out: inactive

In: Lookup `CCCCCC(=O)N1CCN(S(=O)(=O)c2ccc3c(c2)OCCCO3)CC1`
Out: inactive
